// provenance: paper PMC9866191

Entries and their inhibition at 10 µM values follow.
Tested on: A498
Experiment: NCI-60 one-dose screen
Format: cell-based
Details: Homo sapiens; A498, Renal Cancer panel; single dose 10^−5 M; read-out: Growth inhibition %
REPORTED_PROPERTY: inhibition at 10 µM (%)

> print(dat)
                            sample.smiles  value.reported
1       Fc1cccc(CNc2c3ccccc3nc3ccccc23)c1             113
2         Cc1ccccc1CNc1c2ccccc2nc2ccccc12             102
3  COc1ccc2nc3ccccc3c(NCc3ccc(Cl)cc3)c2c1            91.4
4    COc1ccc(CNc2c3ccccc3nc3ccccc23)cc1OC             112

###

Test system: SNB-19
Test: NCI-60 one-dose screen
Assay type: cell-based
Settings: Homo sapiens; SNB-19, CNS Cancer panel; single dose 10^−5 M; read-out: Growth inhibition %
Please enter condition met where inhibition at 10 µM is greater than or equal to 70%, and condition not met where it is lower.

> print(dat)
                                    molecule  assigned.category
 1  Cc1ccc2nc3ccccc3c(NCc3ccc(Cl)cc3)c2c1 [Compound 31]  condition not met
 2  Fc1cccc(CNc2c3ccccc3nc3ccccc23)c1 [Compound 9, Acridin-9-yl-(3-fluorobenzyl)-amine]  condition not met
 3  c1ccc(CNc2c3ccccc3nc3ccccc23)cc1 [Compound 1, Acridin-9-yl-benzyl-amine]  condition not met
 4  COc1ccc(CNc2c3ccccc3nc3ccccc23)cc1 [Compound 7, Acridin-9-yl-(4-methoxybenzyl)-amine]  condition not met
 5  COc1ccc2nc3ccccc3c(NCc3ccc(F)cc3)c2c1 [Compound 28]      condition met
 6  COc1ccc2nc3ccccc3c(NCc3ccc(Cl)cc3)c2c1 [Compound 29]      condition met
 7  c1ccc(CCNc2c3ccccc3nc3ccccc23)cc1 [Compound 23, Acridin-9-yl-phenethyl-amine]  condition not met
 8  COc1ccc(CNc2c3ccccc3nc3ccccc23)cc1OC [Compound 18, Acridin-9-yl-(3,4-dimethoxybenzyl)-amine]      condition met
 9  Clc1ccc(CNc2c3ccccc3nc3ccccc23)cc1 [Compound 13, Acridin-9-yl-(4-chlorobenzyl)-amine]  condition not met
10  Fc1ccc(CNc2c3ccccc3nc3ccccc23)cc1F [Compound 22, Acridin-9-yl-(3,4-difluorobenzyl)-amine]  condition not met
11  c1coc(CNc2c3ccccc3nc3ccccc23)c1 [Compound 14, Acridin-9-yl-furan-2-ylmethyl-amine]  condition not met
12  Clc1cccc(CNc2c3ccccc3nc3ccccc23)c1 [Compound 12, Acridin-9-yl-(3-chlorobenzyl)-amine]      condition met
13  Cc1ccccc1CNc1c2ccccc2nc2ccccc12 [Compound 2, Acridin-9-yl-(2-methylbenzyl)-amine]      condition met
14  Clc1ccccc1CNc1c2ccccc2nc2ccccc12 [Compound 11, Acridin-9-yl-(2-chlorobenzyl)-amine]      condition met
15  COc1ccc2nc3ccccc3c(NCc3ccccc3)c2c1 [Compound 25, Benzyl-(2-methoxyacridin-9-yl)-amine]      condition met
16  COc1cccc(CNc2c3ccccc3nc3ccccc23)c1OC [Compound 16, Acridin-9-yl-(2,3-dimethoxybenzyl)-amine]  condition not met
17  COc1cccc(CNc2c3ccccc3nc3ccccc23)c1 [Compound 6, Acridin-9-yl-(3-methoxybenzyl)-amine]  condition not met
18  COc1ccccc1CNc1c2ccccc2nc2ccccc12 [Compound 5, Acridin-9-yl-(2-methoxybenzyl)-amine]  condition not met
19  Fc1ccc(CNc2c3ccccc3nc3ccccc23)cc1 [Compound 10, Acridin-9-yl-(4-fluorobenzyl)-amine]  condition not met
20  Fc1cccc(CNc2c3ccccc3nc3ccccc23)c1F [Compound 20, Acridin-9-yl-(2,3-difluorobenzyl)-amine]  condition not met
21  Fc1ccccc1CNc1c2ccccc2nc2ccccc12 [Compound 8, Acridin-9-yl-(2-fluorobenzyl)-amine]  condition not met
22  COc1ccc(CNc2c3ccccc3nc3ccc(OC)cc23)cc1 [Compound 27]      condition met
23  COc1ccc(CNc2c3ccccc3nc3ccccc23)c(OC)c1 [Compound 17, Acridin-9-yl-(2,4-dimethoxybenzyl)-amine]  condition not met
24  c1csc(-c2ccc(CNc3c4ccccc4nc4ccccc34)cc2)c1 [Compound 24]  condition not met
25  Fc1ccc(CNc2c3ccccc3nc3ccccc23)c(F)c1 [Compound 21, Acridin-9-yl-(2,4-difluorobenzyl)-amine]  condition not met
